Target: chimeric Caspase-9 polypeptide
Sequence (as listed by the source, change not shown): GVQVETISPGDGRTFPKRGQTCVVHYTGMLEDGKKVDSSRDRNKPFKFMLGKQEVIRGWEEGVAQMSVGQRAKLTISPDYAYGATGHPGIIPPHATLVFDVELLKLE
Assay: Caspase mutant classes and basal activity (Table 3)
Type: cell-based, human
Settings: class heading of Table 3; ligand IC50
test_readout: IC50

Sample records with IC50:
molecule="F404Y (protein) GFGDVGALESLRGNADLAYILSMEPCGHCLIINNVNFCRESGLRTRTGSNIDCEKLRRRFSSLHFMVEVKGDLTAKKMVLALLELAQQDHGALDCCVVVILSHGCQASHLQFPGAVYGTDGCPVSVEKIVNIFNGTSCPSLGGKPKLFFIQACGGEQKDHGFEVASTSPEDESPGSNPEPDATPFQEGLRTFDQLDAISSLPTPSDIFVSYSTFPGFVSWRDPKSGSWYVETLDDIFEQWAHSEDLQSLLLRVANAVSVKGIYKQMPGCYNFLRKKLFFKTS" reported_value="higher IC50"
molecule="F406Y (protein) GFGDVGALESLRGNADLAYILSMEPCGHCLIINNVNFCRESGLRTRTGSNIDCEKLRRRFSSLHFMVEVKGDLTAKKMVLALLELAQQDHGALDCCVVVILSHGCQASHLQFPGAVYGTDGCPVSVEKIVNIFNGTSCPSLGGKPKLFFIQACGGEQKDHGFEVASTSPEDESPGSNPEPDATPFQEGLRTFDQLDAISSLPTPSDIFVSYSTFPGFVSWRDPKSGSWYVETLDDIFEQWAHSEDLQSLLLRVANAVSVKGIYKQMPGCFNYLRKKLFFKTS" reported_value="higher IC50"
molecule="C403T (protein) GFGDVGALESLRGNADLAYILSMEPCGHCLIINNVNFCRESGLRTRTGSNIDCEKLRRRFSSLHFMVEVKGDLTAKKMVLALLELAQQDHGALDCCVVVILSHGCQASHLQFPGAVYGTDGCPVSVEKIVNIFNGTSCPSLGGKPKLFFIQACGGEQKDHGFEVASTSPEDESPGSNPEPDATPFQEGLRTFDQLDAISSLPTPSDIFVSYSTFPGFVSWRDPKSGSWYVETLDDIFEQWAHSEDLQSLLLRVANAVSVKGIYKQMPGTFNFLRKKLFFKTS" reported_value=Similar
molecule="D330A-S144A (protein) GFGDVGALEALRGNADLAYILSMEPCGHCLIINNVNFCRESGLRTRTGSNIDCEKLRRRFSSLHFMVEVKGDLTAKKMVLALLELAQQDHGALDCCVVVILSHGCQASHLQFPGAVYGTDGCPVSVEKIVNIFNGTSCPSLGGKPKLFFIQACGGEQKDHGFEVASTSPEDESPGSNPEPDATPFQEGLRTFDQLAAISSLPTPSDIFVSYSTFPGFVSWRDPKSGSWYVETLDDIFEQWAHSEDLQSLLLRVANAVSVKGIYKQMPGCFNFLRKKLFFKTS" reported_value="higher IC50"
molecule="F406T (protein) GFGDVGALESLRGNADLAYILSMEPCGHCLIINNVNFCRESGLRTRTGSNIDCEKLRRRFSSLHFMVEVKGDLTAKKMVLALLELAQQDHGALDCCVVVILSHGCQASHLQFPGAVYGTDGCPVSVEKIVNIFNGTSCPSLGGKPKLFFIQACGGEQKDHGFEVASTSPEDESPGSNPEPDATPFQEGLRTFDQLDAISSLPTPSDIFVSYSTFPGFVSWRDPKSGSWYVETLDDIFEQWAHSEDLQSLLLRVANAVSVKGIYKQMPGCFNTLRKKLFFKTS" reported_value="much higher"
molecule="P318A (protein) GFGDVGALESLRGNADLAYILSMEPCGHCLIINNVNFCRESGLRTRTGSNIDCEKLRRRFSSLHFMVEVKGDLTAKKMVLALLELAQQDHGALDCCVVVILSHGCQASHLQFPGAVYGTDGCPVSVEKIVNIFNGTSCPSLGGKPKLFFIQACGGEQKDHGFEVASTSPEDESPGSNPEPDATAFQEGLRTFDQLDAISSLPTPSDIFVSYSTFPGFVSWRDPKSGSWYVETLDDIFEQWAHSEDLQSLLLRVANAVSVKGIYKQMPGCFNFLRKKLFFKTS" reported_value=Similar

IN: What does the record list as IC50 for S307A (protein) GFGDVGALESLRGNADLAYILSMEPCGHCLIINNVNFCRESGLRTRTGSNIDCEKLRRRFSSLHFMVEVKGDLTAKKMVLALLELAQQDHGALDCCVVVILSHGCQASHLQFPGAVYGTDGCPVSVEKIVNIFNGTSCPSLGGKPKLFFIQACGGEQKDHGFEVASTSPEDEAPGSNPEPDATPFQEGLRTFDQLDAISSLPTPSDIFVSYSTFPGFVSWRDPKSGSWYVETLDDIFEQWAHSEDLQSLLLRVANAVSVKGIYKQMPGCFNFLRKKLFFKTS ?
OUT: much higher

IN: Given the entry D330E (protein) GFGDVGALESLRGNADLAYILSMEPCGHCLIINNVNFCRESGLRTRTGSNIDCEKLRRRFSSLHFMVEVKGDLTAKKMVLALLELAQQDHGALDCCVVVILSHGCQASHLQFPGAVYGTDGCPVSVEKIVNIFNGTSCPSLGGKPKLFFIQACGGEQKDHGFEVASTSPEDESPGSNPEPDATPFQEGLRTFDQLEAISSLPTPSDIFVSYSTFPGFVSWRDPKSGSWYVETLDDIFEQWAHSEDLQSLLLRVANAVSVKGIYKQMPGCFNFLRKKLFFKTS , report its measured IC50.
OUT: higher IC50

IN: Sample C403A (protein) GFGDVGALESLRGNADLAYILSMEPCGHCLIINNVNFCRESGLRTRTGSNIDCEKLRRRFSSLHFMVEVKGDLTAKKMVLALLELAQQDHGALDCCVVVILSHGCQASHLQFPGAVYGTDGCPVSVEKIVNIFNGTSCPSLGGKPKLFFIQACGGEQKDHGFEVASTSPEDESPGSNPEPDATPFQEGLRTFDQLDAISSLPTPSDIFVSYSTFPGFVSWRDPKSGSWYVETLDDIFEQWAHSEDLQSLLLRVANAVSVKGIYKQMPGAFNFLRKKLFFKTS — what was its IC50?
OUT: Similar
